Please respond with reported max response for every item in the list.
# assay_details: Cycloheximide Counterscreen for Small Molecule Inhibitors of Shiga Toxin; note: read at 38.3 µM for the half of the compounds with a filed dose
# recorded_conditions: cell reporter, cycloheximide protein synthesis inhibition counterscreen; active compounds read high
The whole screen tested about 300,000 compounds, of which about 37,000 (12%) were called active. The sample holds actives, similar compounds and a random draw of the others, so the mix is not that of the screen.
One number for each entry, in %.

[[record]]
compound = "O=C(NCc1ccc2c(c1)OCO2)c1ccc(Cl)s1"
val = 17.6

[[record]]
compound = "O=C(NCc1ccc2c(c1)OCO2)c1cc(F)c(F)cc1Cl"
val = 16.6

[[record]]
compound = "COc1ccc(-c2c3c(=O)n(C)c(=O)n(C)c3cn2NC(C)=O)cc1"
val = -6.45

[[record]]
compound = "COc1ccc(-c2cc3n(n2)CCc2nc4ccccc4n2-3)cc1"
val = 9.75

[[record]]
compound = "COc1cc(OC)c(C(=O)NCc2ccc3c(c2)OCO3)cc1OC"
val = -1.06

[[record]]
compound = "CC(C)CNC(=S)Nc1ccc(F)cc1"
val = -3.91


// each listed compound needs a value for max response
1. CC(C)C[C@H]1CN=C(Nc2ccccc2)N1CC1CCCCC1
2. O=C(NCCN1CCCC(O)C1)c1cc(COc2c(F)cccc2F)on1 (stereo not given)
3. Cc1cc(C(=O)NCCCc2ccccc2)no1
4. CC(=O)Nc1ccc(NC(=O)CN2C(=O)COc3ccc(S(=O)(=O)N4CCCCC4)cc32)cc1
5. Cc1ccc(NC(=S)Nc2ccc(F)cc2)cc1

Result:
1: -4.32; 2: 9.93; 3: 13.1; 4: -11.2; 5: 8.11

Parameter requested: max response. Apply to each item below.
1. CCN(CC)CCCNC(=O)c1cc(-c2cccc(Cl)c2)on1
2. CC(C)(C)c1ccc(NC(=O)NCc2ccco2)cc1
3. COc1ccc(-c2nonc2NC(=O)c2oc3ccc(F)cc3c2C)cc1OC
4. Cc1onc(-c2ccccc2Cl)c1C(=O)OCC(=O)c1ccccc1

Result:
1. 0.892
2. 47.3
3. 4.29
4. 38.6

# batch size: 2; output max response per entry
1. Cc1ccccc1CN1CCN(C(=O)c2cccc(F)c2)CC1
2. COc1ccc(C(=O)Nc2ccccc2C(=O)NCc2ccco2)cc1

Result:
-3.46
-2.2

Batch request: max response for each of the following compounds.
1. O=C(NCc1ccc2c(c1)OCO2)c1sccc1Br
2. COc1ccc(C(=O)NNS(=O)(=O)c2ccc(C)cc2)cc1
3. CCC/C(=N\O)c1c[nH]c2ccccc12

Result:
[16.3, -1.39, 13.5]

State recorded max response for all listed compounds.
1. COc1ccc(-c2cc(C(=O)n3cnc4ccccc43)c3ccccc3n2)cc1
2. COc1ccc(CNS(=O)(=O)c2ccc(NC(=O)N3CCCCC3)cc2)cc1
3. Cc1ccc(NC(=S)NC2CCCC2)cc1
4. COc1cc(NS(=O)(=O)c2ccc(NC(=S)NC(=O)c3ccccc3)cc2)nc(OC)n1

Result:
16.1
2.3
26.6
-6

Task: Which max response value belongs to "Cc1cccc(-n2cc(CN3CCN(C(=O)c4ncn[nH]4)CC3)c(-c3cccc(F)c3)n2)c1" ?
Result: 20.6

----------
# assay_details: Cycloheximide Counterscreen for Small Molecule Inhibitors of Shiga Toxin; note: read at 38.3 µM for the half of the compounds with a filed dose
# recorded_conditions: cell reporter, cycloheximide protein synthesis inhibition counterscreen; active compounds read high
Hit rate of the full screen: of about 300,000 compounds, about 37,000 (12%) were called active. Many of the other results were omitted from the sample, so actives are more common in it than they were.
reported_metric: max response (%)
Answers are plain numbers, in %.

# count of solved cases: 5
[[record]]
compound = "CCOc1ccc2[nH]c(C(=O)N/N=C/c3cccc(OC)c3OC)cc2c1"
val = 9.3

[[record]]
compound = "Cc1ccc2c(CC(=O)NCc3cccs3)coc2c1"
val = 29.3

[[record]]
compound = "Cc1ccc(Sc2cc(C(=O)c3ccccc3C(=O)O)ccc2[N+](=O)[O-])cc1"
val = -4.78

[[record]]
compound = "CC(=O)c1ccc(NC(=O)c2ccc(-n3cncn3)c([N+](=O)[O-])c2)cc1"
val = 5.03

[[record]]
compound = "COc1ccccc1N1CCN(C(=O)C(=O)N/N=C/c2ccccc2F)CC1"
val = -0.733


For each entry beneath this line, provide reported max response.
1. O=C(NCc1ccc(Cl)cc1)C1CCN(S(=O)(=O)c2cccs2)CC1
2. CC(=O)c1cccc(NC(=S)N2CCN(S(C)(=O)=O)CC2)c1
3. Cc1cccn2cc(-c3cccc(S(=O)(=O)N4CCCCC4)c3)nc12
4. COc1ccc(-c2nn(CCC#N)cc2C(=O)O)cc1
5. Cc1cc(C(=O)CSc2nc(N)cc(=O)[nH]2)c(C)n1CCc1ccc(Cl)cc1

Result:
1: -3.46; 2: 3.24; 3: 15.4; 4: 0.75; 5: 4.99

Give max response for all compounds that follow.
1. O=C(Cc1ccc(F)cc1)N/N=C/c1ccc2c(c1)OCO2
2. COc1ccc(Br)cc1CN(C)CC(=O)Nc1cc([N+](=O)[O-])ccc1OC
3. CCSc1nsc(NC(=O)Nc2ccccc2OC)n1
4. CC(C)(C)c1ccc(C(=O)NCc2nnc(SCC(=O)N3CCCc4ccccc43)n2-c2ccccc2)cc1
5. Oc1oc(-c2ccccc2Br)nc1/C=N/c1ccccn1
6. CCN(CC(=O)NCc1cccs1)C(=O)c1ccccc1F

Result:
14.7
-1.88
29.3
-1.48
34.5
-0.418

// batch mode: one max response value per listed entry
1. Cc1ccc(C)c(C(=O)N2CCC(n3nccc3NC(=O)C3CC3)CC2)c1
2. Cc1ccc(C(=O)CSc2ccccc2C(=O)O)cc1
3. Brc1ccc(C2CC(c3ccccc3)=Nc3ccccc3N2)cc1 (centres undefined)
4. COc1cc2c(cc1OC)C(C(=O)NCc1ccco1)C1c3ccccc3CCN1C2=O (centres undefined)
5. COc1ccc(-c2nn(CCC#N)cc2C(=O)Nc2ccc(C(C)=O)cc2)cc1
6. O=C1CC(C(F)(F)C(F)(F)C(F)(F)C(F)(F)F)=Nc2ccccc2N1

Result:
[-2.23, 20.8, 43.8, -2.13, 18.3, 1.33]

// input: 5 compounds below; output: max response for each
1. CC(C)N(C(=O)Cn1cc(S(=O)(=O)CC(=O)N2CCOCC2)c2ccccc21)C(C)C
2. NC(=O)c1oc2ccccc2c1NC(=O)CS(=O)(=O)c1ccccc1
3. CC1(c2ccc3ccccc3c2)NC(=O)N(CC(N)=O)C1=O (centres undefined)
4. O=S(=O)(c1cccc(-c2nnc3n2CCCCC3)c1)N1CCOCC1
5. COc1ccc(NS(=O)(=O)c2cc3c(cc2C)N(C(C)=O)CCO3)cc1

Result:
2.9
14.9
-1.55
-0.622
-2.57

Give measured max response for every item shown.
1. N=C1/C(=C/c2cccn2-c2cccc([N+](=O)[O-])c2)C(=O)N=C2SC=CN12
2. COCCNC(=O)CCCN1C(=O)c2ccccc2Sc2ncccc21

Result:
1: -2.19; 2: 5.87

----------
# assay_details: Cycloheximide Counterscreen for Small Molecule Inhibitors of Shiga Toxin; note: read at 38.3 µM for the half of the compounds with a filed dose
# recorded_conditions: cell reporter, cycloheximide protein synthesis inhibition counterscreen; active compounds read high
The whole screen tested about 300,000 compounds, of which about 37,000 (12%) were called active. The sample holds actives, similar compounds and a random draw of the others, so the mix is not that of the screen.
Threshold rule: max response greater than or equal to 20% is label 1; below that, label 0.

Reference set (5 entries):
[[record]]
molecule = "Cc1ccc(-c2nnc(-c3ccc(NC(=O)c4cccs4)cc3)o2)cc1"
classification = "label 0"

[[record]]
molecule = "c1ccc(-c2cc(-c3ccccc3)[nH]n2)cc1"
classification = "label 1"

[[record]]
molecule = "CC(=O)c1c(O)cc2n(c1=O)-c1ccc(Cl)cc1C2(C)C"
classification = "label 0"

[[record]]
molecule = "Cc1nc(-c2ccc(NC(=O)c3cccs3)cc2)cs1"
classification = "label 1"

[[record]]
molecule = "Oc1ccccc1-c1cc(-c2ccc(Cl)cc2)n[nH]1"
classification = "label 1"


Task: Test whether the molecule "Cc1ccc(C(=O)N/C(=C\c2cn(S(=O)(=O)N(C)C)c3ccccc23)C(=O)N2CCCC2)cc1" records max response of 20% or higher.
Result: label 0

Task: Please tell me: is the molecule "Cc1nn(CC(=O)Nc2nc3ccccc3s2)c(C)c1[N+](=O)[O-]" at or over 20% in terms of max response?
Result: label 0

----------
# assay_details: Cycloheximide Counterscreen for Small Molecule Inhibitors of Shiga Toxin; note: read at 38.3 µM for the half of the compounds with a filed dose
# recorded_conditions: cell reporter, cycloheximide protein synthesis inhibition counterscreen; active compounds read high
The whole screen tested about 300,000 compounds, of which about 37,000 (12%) were called active. This excerpt belongs to a sample that is enriched for actives.
Kindly state max response for each of the entries shown.
Answers are plain numbers, in %.

[[record]]
compound_string = "Cc1ccc(CS(=O)(=O)c2ncc(Cl)c(C(=O)Nc3nnc(C)s3)n2)cc1"
reported_metric = "max response"
val = 66

[[record]]
compound_string = "Cc1noc(/C=C/c2ccco2)c1S(=O)(=O)N1CCC(C(=O)Nc2ccc(Cl)cn2)CC1"
reported_metric = "max response"
val = 14.7


Here's the next entry for you.
Task: Quick check: max response of "Cc1nnc(NC(=O)CCCOc2ccccc2)s1" ?
Result: -3.73
